target: corticotropin releasing factor 1 receptor; assay: cell-based or functional assay
Ends that are not written are not given here.
Returns: string. Value is Yes if measured CRF1R EC50 is below 0.3 µM, and No if it is greater than or equal to it.

Study these solved cases before continuing.
ZGPPISIDLPITLLRKMIEIEKQEKEKQQAANNRLLLDTI (C-terminal amide) [SEQ ID NO 24]    No
ZGPPISIDLPFQLLRKMIEIEKQEKEKQQATTNARLLATV (C-terminal amide) [SEQ ID NO 21]    No
ZGPPISIDLPFILLRKMIEIEKQEKEKQQAANNRLLLDTI (C-terminal amide) [SEQ ID NO 189]    Yes
ZGPPISIDLPTKLLRKMIEIEKQEKEKQQAANNRLLLDTI (C-terminal amide) [SEQ ID NO 45]    No
ZGPPISIDLPQYLLRKMIEIEKQEKEKQQAANNRLLLDTI (C-terminal amide) [SEQ ID NO 27]    No
ZGPPISIDLPTYLLRKMIEIEKQEKEKQQATTNARILARV (C-terminal amide) [SEQ ID NO 151]    No

Bench note: check whether IVLSLDVPGPLLQILLEQTKQEAAREQATTNARILARV-NH2 [SEQ ID NO 5] shows CRF1R EC50 below 0.3 µM
Yes

Bench note: check whether ZGPPISIDLPIFLLRKMIEIEKQEKEKQQAANNRLLLDTI (C-terminal amide) [SEQ ID NO 29] shows CRF1R EC50 below 0.3 µM
No

Bench note: check whether ZGPPISIDLPTDLLRKMIEIEKQEKEKQQAANNRLLLDTI (C-terminal amide) [SEQ ID NO 49] shows CRF1R EC50 below 0.3 µM
No
